- assay_protocol: Inhibition of Phosphodiesterase 5 from human corpus cavernosum
endpoint_name: IC50 (nM)

compound=CCCc1[nH]nc2c(=O)[nH]c(-c3ccccc3O)nc12 endpoint_name=IC50 unit_string=nM test_result=1000
compound=CCCc1nn(C)c2c(=O)[nH]c(-c3cc(S(=O)(=O)N4CCN(C(N)=O)CC4)ccc3OCC)nc12 endpoint_name=IC50 unit_string=nM test_result=2.1
compound=CCCc1[nH]nc2c(=O)[nH]c(-c3ccccc3)nc12 endpoint_name=IC50 unit_string=nM test_result=4500
compound=CCCc1nn(C)c2c(=O)[nH]c(-c3cc(S(=O)(=O)N4CCN(CCO)CC4)ccc3OCC)nc12 endpoint_name=IC50 unit_string=nM test_result=19
